- System: A549 NSCLC
- Test Description: NCI tumour cell line growth inhibition, 48 h
Measured TGI, listed per entry.

Below, each entry is followed by its recorded TGI result.
Give A549 NSCLC TGI for `COc1ccccc1/C(=N\OCCC(=O)O)c1cccs1` > 100 µM

Missing value: TGI, A549 NSCLC, entry `CC1(C)COC(c2cccnc2/C=N/O)=N1` . Fill in? > 100 µM

Moving on to the next molecule.
Give A549 NSCLC TGI for CCC(C)n1ncn(-c2ccc(N3CCN(c4ccc(OCC5COC(Cn6cncn6)(c6ccc(Cl)cc6Cl)O5)cc4)CC3)cc2)c1=O (stereo not drawn) > 100 µM

----------
- Tested on: SF-295 CNS
- Test Description: NCI tumour cell line growth inhibition, 48 h
// TGI lookup, one value per entry

Any idea what TGI was measured for COCC1OC(Sc2ccccc2)C(O)C(OC)C1OC (stereo not given) ? > 100 µM

Further cases:
Find the recorded TGI belonging to CCOC(=O)C1(C#N)C(c2ccccc2)CC(O)(c2ccc(OC)cc2)C(C(=O)c2ccc(OC)cc2)C1c1ccccc1 (stereo not given) and report it. > 100 µM

// lookup TGI for CC(O)CCC(=O)c1ccoc1 (stereo not given) > 10000 µM

State the recorded TGI for this entry: CC1(c2cccs2)CC(c2cccs2)=C(C#N)C(=C(C#N)C#N)N1 (stereo not given) 32.6 µM

# query: TGI of entry `O=C(CCn1[nH]c(=O)c(Cl)c(Cl)c1=O)NO` > 100 µM

----------
- Test system: MDA-MB-231 breast
- Test Description: NCI tumour cell line growth inhibition, 48 h
Readings of TGI for the listed compounds
Kindly provide the numeric value in µM only, without the unit symbol.

Worked set:
Fill in: TGI of `COc1cc(OC)c(-c2ccc(OCc3ccccc3)c3c(OC)cc(C)cc23)c2c1C(C)=N[C@H](C)C2` is ___ 4.18

Fill blank: measured TGI of the compound O=C(NC(Cc1c[nH]c2ccccc12)C(=O)Nc1ccc(Br)cc1)OCc1ccccc1 (stereo not given) is ____. 22.9

Query: TGI; subject: `CCCCCCNC(=O)c1cc(NCc2cc(O)ccc2O)ccc1O` 10.4

Now examine the next entry.
If you can, please state the reported TGI value of CCCCCCCCCCCCOC1C(C(COC2OC(C3COC(C)(C)O3)C3OC(C)(C)OC23)NC(=O)Nc2ccc(C(=O)O)cc2)OC2OC(C)(C)OC21 (stereo not given) . 4.98

----------
- System: 786-0 renal
- Test Description: NCI tumour cell line growth inhibition, 48 h
Property Label: TGI

Example entries begin here.
Fill blank: measured TGI of the molecule `CN=c1nc2sc3c(c2c(NC(=S)NC)s1)CCCC3` is ____. > 100 µM

Recorded TGI of `Cc1cc2c(cc1Cl)SC(NS(=O)(=O)c1ccc(Cl)cc1)=NS2(=O)=O` , please. > 100 µM

Returns the measured TGI for the input molecule. Input: O=C(O)CC1NC(/C(=C/c2ccccc2)NC(=O)c2ccccc2)OC1=O (stereo unspecified) > 100 µM

Using the record for CC(C)N(C(=O)C12C3C4C5(C#N)C3C1(C#N)C5C42I)C(C)C (stereo unspecified) , report its TGI. > 100 µM

Bench note: what TGI did `CC(=O)N(C)c1ccc(Nc2cc(C)[nH]c3ccc4ncnc4c23)cc1` show? 18.8 µM

---
Sample `C=C(CCC/C(C)=C/C=C/[C@]1(C)CCCc2ccoc21)CC(=O)O` — what was its TGI? > 100 µM

Which TGI value is on record for `CC(C)(C)OC(=O)N1CCc2[nH][nH]c(=O)c2C1` ? > 100 µM

Give its TGI value. Item: `CCCC[C@@H]1CCN2C[C@@H](O)[C@@H](O)[C@@H]2[C@H]1O` > 100 µM

Which TGI is listed for `CN(C(=O)C1=CCC2(CC1)OCCO2)c1ccccc1OS(=O)(=O)C(F)(F)F` ? > 100 µM

What value of TGI has been reported for the following molecule? `O=C(CCn1[nH]c(=O)c(Cl)c(Cl)c1=O)NO` > 100 µM

For the molecule shown here, N#Cc1c(NN)n(C2OC(CO)C(O)C2O)c2ncnc(N)c12 (stereo unspecified) , give the reported TGI. 4.77 µM
